B1: glmS ribozyme (parent)
chain: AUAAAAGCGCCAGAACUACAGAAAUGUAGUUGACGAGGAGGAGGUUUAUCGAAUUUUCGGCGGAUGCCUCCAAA

Variants of: B1
Test: self-cleavage kobs at 10000 uM GlcN6P; higher = faster cleavage; RNA array
Conditions: with glucosamine-6-phosphate
Variants at the floor of the assay were thinned out.
readout.type: self-cleavage kobs at 10000 uM GlcN6P (s⁻¹)
Only the number, expressed in s⁻¹, is required.

mut	uom	result.value
G32U C68U	s⁻¹	9.76e-05

Could you share which self-cleavage kobs at 10000 uM GlcN6P value was measured for G66A C67G ?
0.00412

Next variant up: G29A A48U
2.73e-05

The measurements presented in this section are drawn from the supplement of paper PMC7125110.
